- Target Under Test: EZH2 (Homo sapiens, UniProt Q15910)
- Sequence (Q15910 whole entry, species assumed): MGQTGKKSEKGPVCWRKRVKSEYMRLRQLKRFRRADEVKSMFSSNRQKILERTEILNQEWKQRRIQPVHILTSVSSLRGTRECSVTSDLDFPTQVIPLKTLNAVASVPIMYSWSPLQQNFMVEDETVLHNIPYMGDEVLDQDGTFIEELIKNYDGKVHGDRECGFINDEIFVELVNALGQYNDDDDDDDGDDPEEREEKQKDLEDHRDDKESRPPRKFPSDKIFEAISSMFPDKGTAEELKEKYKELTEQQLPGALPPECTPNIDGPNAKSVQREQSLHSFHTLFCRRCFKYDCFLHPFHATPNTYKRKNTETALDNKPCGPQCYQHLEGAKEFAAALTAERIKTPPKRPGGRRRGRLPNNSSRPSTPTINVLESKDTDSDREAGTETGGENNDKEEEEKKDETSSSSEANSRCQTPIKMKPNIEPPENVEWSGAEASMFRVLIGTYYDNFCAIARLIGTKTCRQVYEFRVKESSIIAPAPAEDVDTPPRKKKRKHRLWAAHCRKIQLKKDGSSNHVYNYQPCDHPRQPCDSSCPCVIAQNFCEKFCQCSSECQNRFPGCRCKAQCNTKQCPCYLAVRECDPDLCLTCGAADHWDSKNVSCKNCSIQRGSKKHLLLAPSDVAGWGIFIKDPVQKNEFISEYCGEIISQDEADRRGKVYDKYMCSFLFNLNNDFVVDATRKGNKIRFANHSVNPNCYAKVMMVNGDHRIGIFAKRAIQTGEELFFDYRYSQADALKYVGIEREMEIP
- Sequence (O75530 whole entry partner, species assumed): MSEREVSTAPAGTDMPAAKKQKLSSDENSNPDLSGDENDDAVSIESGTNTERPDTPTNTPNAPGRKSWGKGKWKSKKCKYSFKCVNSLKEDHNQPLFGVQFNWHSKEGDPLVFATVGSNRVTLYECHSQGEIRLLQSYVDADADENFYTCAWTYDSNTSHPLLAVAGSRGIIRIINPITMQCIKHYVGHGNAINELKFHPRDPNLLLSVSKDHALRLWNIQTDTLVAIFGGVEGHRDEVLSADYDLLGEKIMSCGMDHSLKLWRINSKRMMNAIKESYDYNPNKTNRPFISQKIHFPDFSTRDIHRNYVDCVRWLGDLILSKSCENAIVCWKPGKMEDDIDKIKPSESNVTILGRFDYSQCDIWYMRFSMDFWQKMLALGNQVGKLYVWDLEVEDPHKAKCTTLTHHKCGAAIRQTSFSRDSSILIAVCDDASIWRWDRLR
- Sequence (Q15022 whole entry partner, species assumed): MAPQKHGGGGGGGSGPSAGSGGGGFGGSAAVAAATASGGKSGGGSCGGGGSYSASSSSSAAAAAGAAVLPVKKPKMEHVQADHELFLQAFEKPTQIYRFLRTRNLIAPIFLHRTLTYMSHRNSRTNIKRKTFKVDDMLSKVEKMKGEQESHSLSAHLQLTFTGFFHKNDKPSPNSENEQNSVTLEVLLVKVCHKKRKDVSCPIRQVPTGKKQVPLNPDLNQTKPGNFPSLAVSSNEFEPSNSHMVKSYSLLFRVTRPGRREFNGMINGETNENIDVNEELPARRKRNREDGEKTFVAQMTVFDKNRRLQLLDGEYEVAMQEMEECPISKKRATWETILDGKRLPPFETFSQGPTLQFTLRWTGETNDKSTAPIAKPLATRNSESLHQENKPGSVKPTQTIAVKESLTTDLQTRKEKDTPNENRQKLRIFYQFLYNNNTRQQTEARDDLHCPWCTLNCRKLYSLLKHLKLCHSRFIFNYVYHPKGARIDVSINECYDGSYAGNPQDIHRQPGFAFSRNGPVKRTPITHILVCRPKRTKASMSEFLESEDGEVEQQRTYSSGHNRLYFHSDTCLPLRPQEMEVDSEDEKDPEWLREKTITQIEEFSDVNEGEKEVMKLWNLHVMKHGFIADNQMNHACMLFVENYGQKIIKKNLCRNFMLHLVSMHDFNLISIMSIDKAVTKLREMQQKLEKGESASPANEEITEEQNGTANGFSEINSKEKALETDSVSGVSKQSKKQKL
- Assay Notes: AlphaLISA enzyme activity inhibition, EZH2
- Type: biochemical
- Test Conditions: 10nM test substance
Counter-ions that a name gives are not always drawn.
Listing of recorded inhibition at 0.01 µM by entry.

{"columns": ["Compound", "inhibition at 0.01 µM / %"],
 "data": [
  ["CSc1cc(C)[nH]c(=O)c1CNC(=O)c1cc(-c2cnc(N3CCOCC3)nc2)c2c(c1C)OC(C)(C1CCN(CC(F)(F)F)CC1)O2 (single isomer, unassigned) [Compound 69]", 99.6],
  ["CSc1cc(C)[nH]c(=O)c1CNC(=O)c1cc(-c2ccc(N3CCOCC3)nc2)c2c(c1C)OC(C)(C1CCN(CC(F)(F)F)CC1)O2 (single isomer, unassigned) [Compound 62]", 99.4],
  ["CSc1cc(C)[nH]c(=O)c1CNC(=O)c1cc(-c2ccc(N3C[C@@H](C)O[C@@H](C)C3)nc2)c2c(c1C)OC(C)([C@H]1CC[C@H](N(C)C(=O)C(F)(F)F)CC1)O2 (stereo partly shown) [Compound 115]", 85.8],
  ["CSc1cc(C)[nH]c(=O)c1CNC(=O)c1cc(-c2ccc(N3C[C@@H](C)O[C@@H](C)C3)nc2)c2c(c1C)OC(C)([C@H]1CC[C@H](N(C)CC(F)F)CC1)O2 (stereo partly shown) [Compound 109]", 91.6],
  ["CCN1CCN(c2ncc(-c3cc(C(=O)NCc4c(SC)cc(C)[nH]c4=O)c(C)c4c3OC(C)(C3CCN(CC(F)(F)F)CC3)O4)cn2)CC1 (stereo not shown) [Compound 75]", 99.7],
  ["CSc1cc(C)[nH]c(=O)c1CNC(=O)c1cc(-c2ccc(N3C[C@@H](C)O[C@@H](C)C3)nc2)c2c(c1C)OC(C)(C1CCN(C(C)C)CC1)O2 (single isomer, unassigned) [Compound 51]", 99.5],
  ["CSc1cc(C)[nH]c(=O)c1CNC(=O)c1cc(-c2ccc(N3C[C@@H](C)O[C@@H](C)C3)nc2)c2c(c1C)OC(C)([C@H]1CC[C@H](N(C)CCc3ccccc3)CC1)O2 (stereo partly shown) [Compound 112]", 97],
  ["CSc1cc(C)[nH]c(=O)c1CNC(=O)c1cc(-c2ccc3c(c2)OC(F)(F)O3)c2c(c1C)OC(C)(C1CCN(CC(F)(F)F)CC1)O2 (stereo not shown) [Compound 93]", 37.9],
  ["CCN1CCC(C2(C)Oc3c(-c4cnc(N(C)CC)nc4)cc(C(=O)NCc4c(SC)cc(C)[nH]c4=O)c(C)c3O2)CC1 (single isomer, unassigned) [Compound 83]", 99.4],
  ["CSc1cc(C)[nH]c(=O)c1CNC(=O)c1cc(-c2ccc(N3C[C@@H](C)O[C@@H](C)C3)nc2)c2c(c1C)OC(C)([C@H]1CC[C@H](N)CC1)O2 (stereo partly shown) [Compound 100, hydrochloride]", 100]
]}
